- Tested on: Bacillus pumilus
- protocolNotes: Antibacterial activity against Bacillus pumilus assessed as growth inhibition at 900 ug/ml by NCCLS […] method
- Format: functional
- conditionSet: read-out: IZ
I'd appreciate it if you could supply zone of inhibition at 900 µg/mL values for the items below.
# output: bare number, implied unit mm

State, in one line, measured zone of inhibition at 900 µg/mL of `COc1ccc2c(OCCCN3CCN(Cc4ccc(Cl)cc4Cl)CC3)c(-c3ccccc3)c(=O)oc2c1`
4.28

State, in one line, measured zone of inhibition at 900 µg/mL of `CCCOc1ccc(CN2CCN(CCCOc3c(-c4ccccc4)c(=O)oc4cc(OC)ccc34)CC2)cc1`
6.8

State, in one line, measured zone of inhibition at 900 µg/mL of `COc1ccc2c(OCCCN3CCN(Cc4ccc(F)cc4F)CC3)c(-c3ccccc3)c(=O)oc2c1`
10.7

State, in one line, measured zone of inhibition at 900 µg/mL of `COc1ccc2c(OCCCN3CCN(Cc4ccc[nH]4)CC3)c(-c3ccccc3)c(=O)oc2c1`
15.5

State, in one line, measured zone of inhibition at 900 µg/mL of `COc1ccc(CN2CCN(CCCOc3c(-c4ccccc4)c(=O)oc4cc(OC)ccc34)CC2)cc1`
10.5

State, in one line, measured zone of inhibition at 900 µg/mL of `CN[C@@H]1[C@H](O[C@H]2[C@H](O[C@H]3[C@H](O)[C@@H](O)[C@H](N=C(N)N)[C@@H](O)[C@@H]3N=C(N)N)O[C@@H](C)[C@]2(O)C=O)O[C@@H](CO)[C@H](O)[C@H]1O`
14.5

State, in one line, measured zone of inhibition at 900 µg/mL of `COc1ccc2c(OCCCN3CCN(Cc4ccccc4)CC3)c(-c3ccccc3)c(=O)oc2c1`
4.21

----------
- Test system: Fusarium oxysporum
- protocolNotes: Antifungal activity against Fusarium oxysporum assessed as growth inhibition at 1200 ug/ml
- Type: functional
- conditionSet: read-out: IZ
measuredProperty: zone of inhibition at 1200 µg/mL

State, in one line, measured zone of inhibition at 1200 µg/mL of `COc1ccc2c(OCCCN3CCN(Cc4cccnc4)CC3)c(-c3ccccc3)c(=O)oc2c1`
27.9 mm

State, in one line, measured zone of inhibition at 1200 µg/mL of CCC(C)n1ncn(-c2ccc(N3CCN(c4ccc(OCC5COC(Cn6cncn6)(c6ccc(Cl)cc6Cl)O5)cc4)CC3)cc2)c1=O (configuration not stated) [ITRACONAZOLE]
34.4 mm

State, in one line, measured zone of inhibition at 1200 µg/mL of `COc1ccc2c(OCCCN3CCN(Cc4ccc(Br)cc4)CC3)c(-c3ccccc3)c(=O)oc2c1`
29.4 mm

State, in one line, measured zone of inhibition at 1200 µg/mL of `COc1ccc2c(OCCCN3CCN(Cc4ccc(Cl)cc4Cl)CC3)c(-c3ccccc3)c(=O)oc2c1`
25.8 mm

State, in one line, measured zone of inhibition at 1200 µg/mL of `COc1ccc2c(OCCCN3CCN(Cc4ccc(F)cc4F)CC3)c(-c3ccccc3)c(=O)oc2c1`
28.1 mm

State, in one line, measured zone of inhibition at 1200 µg/mL of `CCCOc1ccc(CN2CCN(CCCOc3c(-c4ccccc4)c(=O)oc4cc(OC)ccc34)CC2)cc1`
19.8 mm

State, in one line, measured zone of inhibition at 1200 µg/mL of `COc1ccc2c(OCCCN3CCN(Cc4ccc[nH]4)CC3)c(-c3ccccc3)c(=O)oc2c1`
31.6 mm
